From: paper PMC10150365

assay: in vitro; details: human, Caco-2, pH 7.4, Recovery, B2A, geometric mean row
VALUE_KIND: recovery (%)
Provide the reading as a plain figure in %.

Given the compound Cc1ccc(NC(=O)c2ccc3c(c2)OCCO3)cc1NC(=O)c1ccc2nc(OCCN3CCCC3)ccc2c1 [Compound 1] , write its reported recovery. 70

###

experiment: Plasma stability; format: in vitro ADME; conditions: pooled plasma; mouse plasma, 1 µM, 37 °C, 15 min; read-out: Compound remaining (% of 0 min)
VALUE_KIND: remaining at 15 min, 1 µM (%)
Provide the reading as a plain figure in %.

Given the compound `Cc1ccc(NC(=O)c2ccc3c(c2)OCCO3)cc1NC(=O)c1ccc2nc(OCCN3CCCC3)ccc2c1` , write its reported remaining at 15 min, 1 µM. 97.8
